# test-target: STING (Homo sapiens, UniProt Q86WV6, G230A/H232R/R293Q/R71H)
# Sequence (Q86WV6 whole entry R71H/G230A/H232R/R293Q): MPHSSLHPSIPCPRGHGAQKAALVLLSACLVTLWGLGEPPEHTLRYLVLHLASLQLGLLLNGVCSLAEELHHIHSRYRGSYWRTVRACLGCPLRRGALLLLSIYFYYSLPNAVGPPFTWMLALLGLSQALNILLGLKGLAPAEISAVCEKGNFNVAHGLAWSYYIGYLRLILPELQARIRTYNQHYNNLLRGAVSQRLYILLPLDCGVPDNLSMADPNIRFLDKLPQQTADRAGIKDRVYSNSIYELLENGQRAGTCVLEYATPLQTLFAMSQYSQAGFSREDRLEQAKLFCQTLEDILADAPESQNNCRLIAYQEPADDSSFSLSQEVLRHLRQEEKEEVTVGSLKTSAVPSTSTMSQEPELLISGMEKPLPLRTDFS
# experiment-summary: STING reporter assay in THP1-Dual KO-IFNAR2 cells (2′3′cGAMP stimulation, luciferase reporter)
# test-parameters: 15 μM 2′3′cGAMP stimulation, 24 h, read-out: Pharmaron, THP1_IFNAR2 STING 24 h Luci Normalized: GeoMean EC50
// reported EC50 for each item listed

>>> obs_value("N#C[C@H]1C[C@@H]1C(=O)Nc1c[nH]c2ccc(OCc3ccc(C(F)(F)F)cc3)cc12 [Compound 585]")
"200 to 1000 nM"
>>> obs_value("O=C(Nc1c[nH]c2ccc(O[C@H]3C[C@@H](c4ccc(C(F)(F)F)cc4)C3)cc12)C1CN(CC(F)(F)F)C1 [Compound 243]")
"40 to 200 nM"
>>> obs_value("CC(=O)Nc1c[nH]c2ccc(O[C@@H]3C[C@@H](c4ccc(C(F)(F)F)cc4)[C@H]3C)cc12 [Compound 443]")
"200 to 1000 nM"
>>> obs_value("CC(C)(O)CC(=O)Nc1c[nH]c2ccc(OCCc3ccc(C(F)(F)F)cc3)cc12 [Compound 519]")
"40 to 200 nM"
>>> obs_value("O=C(Nc1c[nH]c2ccc(OCC[C@@H]3C[C@@H]4CN(CC(F)(F)F)C[C@@H]4C3)cc12)C1CC(F)C1 (stereo partly shown) [Compound 589]")
"40 to 200 nM"
>>> obs_value("CC1(C(=O)Nc2c[nH]c3ccc(OCc4ccc(C(F)(F)F)cc4)cc23)CCC1 [Compound 294]")
"40 to 200 nM"

Please examine the following record next.
Any idea what its EC50 is? The compound is CC(=O)Nc1c[nH]c2ccc(CO[C@H]3C[C@H](c4ccc(C(F)(F)F)cc4)C3)cc12 [Compound 482]
40 to 200 nM
